# Experimental Target: hFAAH (Homo sapiens)
# Construct: expressed in transfected cells; host or cells: HEK293-TRex (Invitrogen) stably transfected with hFAAH in the pcDNA5-Tet-off vector, or T84 human colon epithelial cells (endogenous hFAAH); used as a microsomal preparation
# Assay Notes: Fluorimetric assay with hFAAH microsomes (enzymatic, fluorescence based)
# Assay type: biochemical
# Measurement Setup: compound at 1 uM, AA-AMC substrate
Measurement Name: inhibition at 1 µM

Reference set (5 entries):
Compound | Experimental Target | inhibition at 1 µM
c1ccc2ncc(Nc3ncnc4c3CN(Cc3ccncc3)C4)cc2c1 | hFAAH (Homo sapiens) | > 75%
O=C(CN1CCCCCC1)N1Cc2ncnc(Nc3cnc4ccccc4c3)c2C1 | hFAAH (Homo sapiens) | < 25%
c1ccc2ncc(Nc3ncnc4c3CN(CC3CCCOC3)C4)cc2c1 (stereo not drawn) | hFAAH (Homo sapiens) | > 50%
CC(C)CCN1Cc2ncnc(Nc3cnc4ccccc4c3)c2C1 | hFAAH (Homo sapiens) | > 50%
CC(C)Oc1ccccc1CN1Cc2ncnc(Nc3cnc4ccccc4c3)c2C1 | hFAAH (Homo sapiens) | > 50%

Request: # inhibition at 1 µM lookup, item O=C(NCC1CCCCC1)N1Cc2ncnc(Nc3cnc4ccccc4c3)c2C1
Response: < 25%

Request: # inhibition at 1 µM lookup, item FC(F)(F)c1ccccc1CN1Cc2ncnc(Nc3cnc4ccccc4c3)c2C1
Response: > 75%

Request: # inhibition at 1 µM lookup, item c1ccc2ncc(Nc3ncnc4c3CN(CC3CCCC3)C4)cc2c1
Response: > 75%

Request: # inhibition at 1 µM lookup, item Cc1ncc(CN2Cc3ncnc(Nc4cnc5ccccc5c4)c3C2)s1
Response: > 50%

====

# Experimental Target: hFAAH (Homo sapiens, UniProt O00519)
# Construct: expressed in transfected cells; host or cells: HEK293-TRex (Invitrogen) stably transfected with hFAAH in the pcDNA5-Tet-off vector, or T84 human colon epithelial cells (endogenous hFAAH); used as a microsomal preparation
# Sequence (O00519 1-579): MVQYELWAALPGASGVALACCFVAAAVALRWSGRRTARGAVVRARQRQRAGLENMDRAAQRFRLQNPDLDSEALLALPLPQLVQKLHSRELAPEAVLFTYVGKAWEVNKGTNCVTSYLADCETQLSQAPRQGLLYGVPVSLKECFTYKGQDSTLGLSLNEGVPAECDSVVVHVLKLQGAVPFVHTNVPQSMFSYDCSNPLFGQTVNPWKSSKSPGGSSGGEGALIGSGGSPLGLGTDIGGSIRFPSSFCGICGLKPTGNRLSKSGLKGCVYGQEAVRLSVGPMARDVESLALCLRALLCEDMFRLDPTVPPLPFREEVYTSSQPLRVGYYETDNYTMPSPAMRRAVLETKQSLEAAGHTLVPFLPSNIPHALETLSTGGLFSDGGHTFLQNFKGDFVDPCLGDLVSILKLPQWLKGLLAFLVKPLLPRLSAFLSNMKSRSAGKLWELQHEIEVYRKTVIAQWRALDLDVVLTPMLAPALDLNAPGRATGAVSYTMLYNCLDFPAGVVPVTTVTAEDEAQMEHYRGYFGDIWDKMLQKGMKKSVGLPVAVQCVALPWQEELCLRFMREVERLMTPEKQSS
# Assay Notes: Fluorimetric assay with hFAAH microsomes (enzymatic, fluorescence based)
# Format: biochemical
# Measurement Setup: compound at 1 uM, AA-AMC substrate
Measurement Name: inhibition at 1 µM

Reference set (5 entries):
Smiles Record | Experimental Target | Result
Cc1nc(C)c(S(=O)(=O)N2Cc3ncnc(Nc4cnc5ccccc5c4)c3C2)s1 | hFAAH (Homo sapiens, UniProt O00519) | > 50%
Cc1ncsc1CN1Cc2ncnc(Nc3cnc4ccccc4c3)c2C1 | hFAAH (Homo sapiens, UniProt O00519) | > 75%
Cn1nccc1CN1Cc2ncnc(Nc3cnc4ccccc4c3)c2C1 | hFAAH (Homo sapiens, UniProt O00519) | > 25%
Cc1nc(C)c(CN2Cc3ncnc(Nc4cnc5ccccc5c4)c3C2)s1 | hFAAH (Homo sapiens, UniProt O00519) | > 75%
c1ccc2ncc(Nc3ncnc4c3CN(Cc3ccnc5ccccc35)C4)cc2c1 | hFAAH (Homo sapiens, UniProt O00519) | > 50%

Kindly consider the entry below.
Request: # inhibition at 1 µM lookup, item O=C(CN1CCCCC1)N1Cc2ncnc(Nc3cnc4ccccc4c3)c2C1
Response: < 25%

====

As shown below, each of these compounds has a reported inhibition at 1 µM value.
# Experimental Target: hFAAH (Homo sapiens)
# Construct: expressed in transfected cells; host or cells: HEK293-TRex (Invitrogen) stably transfected with hFAAH in the pcDNA5-Tet-off vector, or T84 human colon epithelial cells (endogenous hFAAH); used as a microsomal preparation
# Sequence (O00519 1-579): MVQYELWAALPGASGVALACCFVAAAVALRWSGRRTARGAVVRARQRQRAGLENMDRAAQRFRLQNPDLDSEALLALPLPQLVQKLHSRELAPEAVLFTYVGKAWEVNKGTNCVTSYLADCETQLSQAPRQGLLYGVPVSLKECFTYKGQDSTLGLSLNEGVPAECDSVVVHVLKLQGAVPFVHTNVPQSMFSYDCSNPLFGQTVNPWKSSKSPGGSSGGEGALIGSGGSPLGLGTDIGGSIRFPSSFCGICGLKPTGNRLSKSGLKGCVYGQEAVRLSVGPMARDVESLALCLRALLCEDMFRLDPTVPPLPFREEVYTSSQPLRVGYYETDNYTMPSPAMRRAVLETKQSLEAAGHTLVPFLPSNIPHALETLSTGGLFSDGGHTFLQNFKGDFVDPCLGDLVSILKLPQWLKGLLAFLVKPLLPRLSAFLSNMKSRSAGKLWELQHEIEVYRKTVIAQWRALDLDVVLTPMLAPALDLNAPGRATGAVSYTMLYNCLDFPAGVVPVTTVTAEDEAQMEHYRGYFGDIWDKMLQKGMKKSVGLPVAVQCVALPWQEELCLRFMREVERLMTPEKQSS
# Assay Notes: Fluorimetric assay with hFAAH microsomes (enzymatic, fluorescence based)
# Assay type: biochemical
# Measurement Setup: compound at 1 uM, AA-AMC substrate
# Method: Human cell line T84 (human colon epithelial cells), which expresses endogenous hFAAH, or HEK293-TRex cells (Invitrogen) stably transfected with hFAAH in the pcDNA5-Tet-off vector are cultured in medium containing DMEM, 10% FBS penicillin/streptomycin, glutamax, 200 μg/ml hygromycin and 0.5 μg/ml blasticidin. […] Protein concentrations are determined using the BCA assay and aliquoted preparations are stored at −80° C. until needed. […]

Reference set (5 entries):
Compound | Result
CC(C)(C)CCN1Cc2ncnc(Nc3cnc4ccccc4c3)c2C1 [Compound 15] | > 25%
CCCCCN1Cc2ncnc(Nc3cnc4ccccc4c3)c2C1 [Compound 10] | > 50%
Cc1nc(CN2Cc3ncnc(Nc4cnc5ccccc5c4)c3C2)cs1 [Compound 25] | < 25%
COc1ccccc1CN1Cc2ncnc(Nc3cnc4ccccc4c3)c2C1 [Compound 83] | > 75%
FC(F)(F)Oc1cccc(CN2Cc3ncnc(Nc4cnc5ccccc5c4)c3C2)c1 [Compound 104] | > 75%

Request: Given the entry c1ccc2ncc(Nc3ncnc4c3CN(CC3CC3)C4)cc2c1 [Compound 5] , what inhibition at 1 µM was observed with hFAAH (Homo sapiens)?
Response: < 25%

Request: Given the entry Cc1cccc(C)c1CN1Cc2ncnc(Nc3cnc4ccccc4c3)c2C1 [Compound 88] , what inhibition at 1 µM was observed with hFAAH (Homo sapiens)?
Response: > 50%

Request: Given the entry COC(=O)c1ccc(S(=O)(=O)N2Cc3ncnc(Nc4cnc5ccccc5c4)c3C2)o1 [Compound 68] , what inhibition at 1 µM was observed with hFAAH (Homo sapiens)?
Response: > 75%

Request: Given the entry COC(=O)c1cc(S(=O)(=O)N2Cc3ncnc(Nc4cnc5ccccc5c4)c3C2)oc1C [Compound 62] , what inhibition at 1 µM was observed with hFAAH (Homo sapiens)?
Response: > 25%

====

# Experimental Target: hFAAH (Homo sapiens, UniProt O00519)
# Construct: expressed in transfected cells; host or cells: HEK293-TRex (Invitrogen) stably transfected with hFAAH in the pcDNA5-Tet-off vector, or T84 human colon epithelial cells (endogenous hFAAH); used as a microsomal preparation
# Assay Notes: Fluorimetric assay with hFAAH microsomes (enzymatic, fluorescence based)
# Format: biochemical
# Measurement Setup: compound at 1 uM, AA-AMC substrate
As shown below, each of these compounds has a reported inhibition at 1 µM value.

Reference set (6 entries):
Compound | inhibition at 1 µM
CCc1nc(C)c(CN2Cc3ncnc(Nc4cnc5ccccc5c4)c3C2)s1 [Compound 97] | > 75%
c1ccc2ncc(Nc3ncnc4c3CN(C3COC3)C4)cc2c1 [Compound 44] | < 25%
FC(F)(F)CCN1Cc2ncnc(Nc3cnc4ccccc4c3)c2C1 [Compound 31] | > 50%
O=S(=O)(c1ccccc1F)N1Cc2ncnc(Nc3cnc4ccccc4c3)c2C1 [Compound 71] | > 25%
Cc1ccc(C)c(CN2Cc3ncnc(Nc4cnc5ccccc5c4)c3C2)c1 [Compound 89] | > 75%
CCCOc1ccccc1CN1Cc2ncnc(Nc3cnc4ccccc4c3)c2C1 [Compound 108] | > 50%

Request: Given the entry COc1ccccc1S(=O)(=O)N1Cc2ncnc(Nc3cnc4ccccc4c3)c2C1 [Compound 73] , what inhibition at 1 µM was observed with hFAAH (Homo sapiens, UniProt O00519)?
Response: > 25%

Request: Given the entry CCCCN1Cc2ncnc(Nc3cnc4ccccc4c3)c2C1 [Compound 6] , what inhibition at 1 µM was observed with hFAAH (Homo sapiens, UniProt O00519)?
Response: > 25%

Request: Given the entry c1ccc(CN2Cc3ncnc(Nc4cnc5ccccc5c4)c3C2)cc1 [Compound 1] , what inhibition at 1 µM was observed with hFAAH (Homo sapiens, UniProt O00519)?
Response: > 75%

Request: Given the entry FC(F)(F)c1cccc(CN2Cc3ncnc(Nc4cnc5ccccc5c4)c3C2)c1 [Compound 99] , what inhibition at 1 µM was observed with hFAAH (Homo sapiens, UniProt O00519)?
Response: > 75%

Request: Given the entry Cc1nc(C(F)(F)F)ccc1CN1Cc2ncnc(Nc3cnc4ccccc4c3)c2C1 [Compound 74] , what inhibition at 1 µM was observed with hFAAH (Homo sapiens, UniProt O00519)?
Response: > 25%

Recorded values, source patent US20110257208A1.
